Test system: Histone deacetylase 1 (Homo sapiens, UniProt Q13547)
Sequence (Q13547 whole entry): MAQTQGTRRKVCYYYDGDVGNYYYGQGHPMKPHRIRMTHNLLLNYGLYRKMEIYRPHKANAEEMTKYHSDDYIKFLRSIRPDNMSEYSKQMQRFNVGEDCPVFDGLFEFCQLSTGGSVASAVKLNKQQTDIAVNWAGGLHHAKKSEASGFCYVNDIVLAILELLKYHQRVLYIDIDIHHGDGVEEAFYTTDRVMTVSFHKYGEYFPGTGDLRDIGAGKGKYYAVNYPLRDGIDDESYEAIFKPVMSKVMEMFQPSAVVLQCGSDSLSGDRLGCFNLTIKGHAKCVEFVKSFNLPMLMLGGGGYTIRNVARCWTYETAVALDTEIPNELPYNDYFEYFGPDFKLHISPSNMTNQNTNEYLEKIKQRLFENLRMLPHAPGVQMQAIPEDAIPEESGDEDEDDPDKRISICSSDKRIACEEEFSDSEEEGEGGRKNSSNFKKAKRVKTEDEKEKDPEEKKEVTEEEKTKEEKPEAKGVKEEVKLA
Protocol: Inhibition of human recombinant FLAG-tagged HDAC1 expressed in baculovirus
pIC50: −log10 of the molar value.
Measured parameter: pIC50

>>> print(df.to_string())
                            chemical_string  result
0  NS(=O)(=O)NCCCC[C@H](NC(=O)NCc1ccc(F)cc1)C(=O)Nc1nc(-c2ccccc2)cs1    6.46
1  NS(=O)(=O)NCCCC[C@H](NC(=O)OCc1ccccc1)C(=O)Nc1nc2ccccc2s1    5.35
2  COc1cccc(-c2csc(NC(=O)[C@H](CCCCNS(N)(=O)=O)NC(=O)OCc3ccccc3)n2)c1    6.34
3  NS(=O)(=O)NCCCC[C@H](NC(=O)OCc1ccccc1)c1csc(-c2ccccc2)n1    6.10
4  NS(=O)(=O)NCCCC[C@H](NC(=O)OCc1ccccc1)c1n[nH]c(-c2ccccc2)n1    5.62

(I) NS(=O)(=O)NCCCC[C@H](NC(=O)OCc1ccccc1)C(=O)Nc1nc(-c2ccccc2)c(-c2ccccc2)s1
(II) CC(C)(C)c1csc(NC(=O)[C@H](CCCCNS(N)(=O)=O)NC(=O)OCc2ccccc2)n1
Query: Param metric = pIC50; output whichever of I , II has the minimum value. Response format: the label of the selected entry.
Reply: II
(II: 5.44, I: 6.07)

----------
Protocol: Half life in rat
Type: ADME, organism-based
Condition set: in vivo
Measured parameter: half-life (h)

In [3]: df
Out[3]:
                            chemical_string  measured_parameter  unit_label  result
0  NS(=O)(=O)NCCCC[C@H](NC(=O)OCc1ccccc1)c1nc2cc(-c3cccs3)ccc2[nH]1           half-life           h     1.2

(a) NS(=O)(=O)NCCCC[C@H](NC(=O)OCc1ccccc1)C(=O)Nc1nc(-c2ccccc2)cs1
(b) CN(C)CCOc1ccc(-c2nc([C@H](CCCCNS(N)(=O)=O)NC(=O)OCc3ccccc3)cs2)cc1
Query: Which has the higher half-life, a or b ? Response format: the label of the selected entry.
Reply: b

----------
Test system: Histone deacetylase 1 (Homo sapiens)
Protocol: Inhibition of human recombinant FLAG-tagged HDAC1 expressed in baculovirus
pIC50: −log10 of the molar value.
Measured parameter: pIC50

Take a look at these entries with their results.
                            chemical_string  measured_parameter  result
0  COc1ccc(-c2csc(NC(=O)[C@H](CCCCNS(N)(=O)=O)NC(=O)OCc3ccccc3)n2)cc1               pIC50    6.92
1  NS(=O)(=O)NCCCC[C@H](NC(=O)OCc1ccccc1)c1nc2cc(-c3cccs3)ccc2[nH]1               pIC50    6.70

(P) NS(=O)(=O)NCCCC[C@H](NC(=O)Nc1ccccc1)C(=O)Nc1nc(-c2ccccc2)cs1
(Q) COc1ccc(-c2nc([C@H](CCCCNS(N)(=O)=O)NC(=O)OCc3ccccc3)cs2)cc1
Query: Param metric = pIC50; output whichever of P , Q has the minimum value. Response format: the label of the selected entry.
Reply: P
(P: 5.64, Q: 6.30)

----------
Test system: Protein deacetylase HDAC6 (Homo sapiens, UniProt Q9UBN7)
Sequence (Q9UBN7 whole entry): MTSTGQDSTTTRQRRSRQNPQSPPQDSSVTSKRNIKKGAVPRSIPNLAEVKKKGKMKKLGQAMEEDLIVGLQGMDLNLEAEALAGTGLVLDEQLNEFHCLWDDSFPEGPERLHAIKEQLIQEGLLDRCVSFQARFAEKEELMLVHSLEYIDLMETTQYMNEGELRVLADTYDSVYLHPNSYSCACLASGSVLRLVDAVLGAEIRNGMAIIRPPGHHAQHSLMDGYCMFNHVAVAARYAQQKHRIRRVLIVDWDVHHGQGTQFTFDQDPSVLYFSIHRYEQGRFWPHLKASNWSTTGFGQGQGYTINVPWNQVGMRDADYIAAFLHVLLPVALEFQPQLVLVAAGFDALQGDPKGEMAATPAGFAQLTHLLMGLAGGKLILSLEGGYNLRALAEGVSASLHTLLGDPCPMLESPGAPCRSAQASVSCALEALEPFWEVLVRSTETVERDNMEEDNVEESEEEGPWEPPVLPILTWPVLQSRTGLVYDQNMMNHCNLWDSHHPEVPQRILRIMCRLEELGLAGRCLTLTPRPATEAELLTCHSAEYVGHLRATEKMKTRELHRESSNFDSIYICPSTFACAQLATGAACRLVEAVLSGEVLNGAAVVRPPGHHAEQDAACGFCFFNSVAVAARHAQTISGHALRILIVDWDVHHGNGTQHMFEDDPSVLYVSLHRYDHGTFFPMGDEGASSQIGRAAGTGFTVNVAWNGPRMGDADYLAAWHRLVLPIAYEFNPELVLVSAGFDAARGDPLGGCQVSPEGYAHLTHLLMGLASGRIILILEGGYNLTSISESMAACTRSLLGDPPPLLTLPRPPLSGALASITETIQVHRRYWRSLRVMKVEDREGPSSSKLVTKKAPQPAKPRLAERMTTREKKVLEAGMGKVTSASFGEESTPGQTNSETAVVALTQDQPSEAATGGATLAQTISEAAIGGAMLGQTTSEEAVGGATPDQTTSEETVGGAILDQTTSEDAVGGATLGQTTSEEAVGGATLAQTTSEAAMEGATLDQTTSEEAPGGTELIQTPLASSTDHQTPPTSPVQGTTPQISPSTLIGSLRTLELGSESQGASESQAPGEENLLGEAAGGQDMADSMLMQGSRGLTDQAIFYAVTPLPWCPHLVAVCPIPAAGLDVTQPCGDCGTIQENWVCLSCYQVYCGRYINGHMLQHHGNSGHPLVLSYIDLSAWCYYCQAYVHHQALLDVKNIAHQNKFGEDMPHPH
Protocol: Inhibition of human recombinant His-tagged HDAC6 expressed in baculovirus
pIC50: −log10 of the molar value.
Measured parameter: pIC50

In [3]: df
Out[3]:
                            chemical_string  result
0  NS(=O)(=O)NCCCC[C@H](NC(=O)OCc1ccccc1)c1nc2cc(-c3cccs3)ccc2[nH]1    6.32
1  NS(=O)(=O)NCCCC[C@H](NC(=O)OCc1ccccc1)C(=O)Nc1nc2ccccc2s1    6.72

(I) NS(=O)(=O)NCCCC[C@H](NC(=O)OCc1ccccc1)c1c[nH]c(-c2ccccc2)n1
(II) CC(C)c1ccc(-c2csc(NC(=O)[C@H](CCCCNS(N)(=O)=O)NC(=O)OCc3ccccc3)n2)cc1
Query: Param metric = pIC50; output whichever of I , II has the minimum value. Response format: the label of the selected entry.
Reply: II

(a) NS(=O)(=O)NCCCC[C@H](NC(=O)OCc1ccccc1)c1nc(-c2ccccc2)cs1
(b) COc1ccc(-c2nc([C@H](CCCCNS(N)(=O)=O)NC(=O)OCc3ccccc3)cs2)cc1
Query: Which has the higher pIC50, a or b ? Response format: the label of the selected entry.
Reply: b
(b: 6.32, a: 5.92)

----------
Test system: Histone deacetylase
Protocol: Inhibition of HDAC in HEK293T cells by whole cell assay
Format: cell-based, Homo sapiens
Condition set: hek-293t
Measured parameter: IC50 (µM)

>>> print(df.to_string())
                            chemical_string          test_system  measured_parameter  result
0  NS(=O)(=O)NCCCC[C@H](NS(=O)(=O)Cc1ccccc1)C(=O)Nc1nc(-c2ccccc2)cs1  Histone deacetylase                IC50      38

(P) CC(C)(C)c1csc(NC(=O)[C@H](CCCCNS(N)(=O)=O)NC(=O)OCc2ccccc2)n1
(Q) NS(=O)(=O)NCCCC[C@H](NC(=O)OCc1ccccc1)C(=O)Nc1nc2ccccc2s1
(R) NS(=O)(=O)NCCCC[C@H](NC(=O)OCc1ccccc1)c1nc2cc(-c3cccs3)ccc2[nH]1
Query: Let's sort these by IC50, smallest first. Go ahead? Answer with the labels in sequence, matching the requested order.
Reply: R, P, Q
(R: 0.62 µM, P: 9.1 µM, Q: 19 µM)

(A) NS(=O)(=O)NCCCC[C@H](NC(=O)OCc1ccccc1)c1nc2ccccc2[nH]1
(B) NS(=O)(=O)NCCCC[C@H](NC(=O)OCc1ccccc1)c1c[nH]c(-c2ccccc2)n1
(C) NS(=O)(=O)NCCCC[C@H](NC(=O)OCc1ccccc1)c1csc(-c2ccccc2)n1
Query: List from greatest to least IC50. Answer with the labels in sequence, matching the requested order.
Reply: A, C, B
(A: 9.5 µM, C: 5.8 µM, B: 2.2 µM)

----------
Test system: Histone deacetylase
Protocol: Inhibition of HDAC in HEK293T cells by whole cell assay
Type: cell-based, Homo sapiens
Condition set: hek-293t
Measured parameter: IC50 (µM)

>>> df
                            chemical_string  measured_parameter  unit_label  result
0  NS(=O)(=O)NCCCC[C@H](NC(=O)OCc1ccccc1)C(=O)Nc1nc(-c2ccccc2)cs1                IC50          µM     2.3
1  NS(=O)(=O)NCCCC[C@H](NC(=O)OCc1ccccc1)c1n[nH]c(-c2ccccc2)n1                IC50          µM     6.4

(I) COc1cccc(-c2csc(NC(=O)[C@H](CCCCNS(N)(=O)=O)NC(=O)OCc3ccccc3)n2)c1
(II) NS(=O)(=O)NCCCC[C@H](NC(=O)OCc1ccccc1)C(=O)Nc1nc(-c2ccccc2)c(-c2ccccc2)s1
(III) NS(=O)(=O)NCCCC[C@H](NC(=O)OCc1ccccc1)C(=O)Nc1nc(-c2ccc(Cl)cc2)cs1
(IV) COc1ccc2[nH]c(C)c(CC(=O)N[C@@H](CCCCNS(N)(=O)=O)C(=O)Nc3nc(-c4ccccc4)cs3)c2c1
Query: List from greatest to least IC50. Answer with the labels in sequence, matching the requested order.
Reply: II, III, I, IV
(II: 7.2 µM, III: 4.9 µM, I: 3.2 µM, IV: 0.59 µM)

----------
Protocol: Volume of distribution at steady state in rat
Assay type: ADME, organism-based
Condition set: in vivo, read-out: Vdss
Measured parameter: Vd (L/kg)

                            chemical_string  result
0  NS(=O)(=O)NCCCC[C@H](NC(=O)OCc1ccccc1)C(=O)Nc1nc(-c2ccccc2)cs1    0.02

(P) NS(=O)(=O)NCCCC[C@H](NC(=O)OCc1ccccc1)c1nc2cc(-c3cccs3)ccc2[nH]1
(Q) CN(C)CCOc1ccc(-c2nc([C@H](CCCCNS(N)(=O)=O)NC(=O)OCc3ccccc3)cs2)cc1
Query: Param metric = Vd; output whichever of P , Q has the minimum value. Response format: the label of the selected entry.
Reply: P

----------
Test system: Histone deacetylase
Protocol: Inhibition of HDAC in HEK293T cells by whole cell assay
Type: cell-based, Homo sapiens
Condition set: hek-293t
Measured parameter: IC50 (µM)

Take a look at these entries with their results.
>>> df
                            chemical_string          test_system  measured_parameter  unit_label  result
0  COc1ccc(-c2csc(NC(=O)[C@H](CCCCNS(N)(=O)=O)NC(=O)OCc3ccccc3)n2)cc1  Histone deacetylase                IC50          µM    0.53
1  NS(=O)(=O)NCCCC[C@H](NC(=O)OCc1ccc(Cl)cc1)C(=O)Nc1nc(-c2ccccc2)cs1  Histone deacetylase                IC50          µM     6.8

(I) CC(C)c1ccc(-c2csc(NC(=O)[C@H](CCCCNS(N)(=O)=O)NC(=O)OCc3ccccc3)n2)cc1
(II) CN(C)CCOc1ccc(-c2nc([C@H](CCCCNS(N)(=O)=O)NC(=O)OCc3ccccc3)cs2)cc1
(III) NS(=O)(=O)NCCCC[C@H](NC(=O)Cc1ccccc1)C(=O)Nc1nc(-c2ccccc2)cs1
(IV) NS(=O)(=O)NCCCC[C@H](NC(=O)OCc1ccccc1)c1nc(-c2ccccc2)cs1
Query: Let's sort these by IC50, smallest first. Go ahead? Answer with the labels in sequence, matching the requested order.
Reply: II, I, III, IV
